Catalogue of compounds with associated MIC
Test system: Staphylococcus aureus
RUN_DESCRIPTION: Antibacterial activity against methicillin resistant Staphylococcus aureus ATCC49008 assessed as reduction in microbial growth after 16 to 18 hrs by microbroth dilution method
Type: functional
RUN_CONDITIONS: time 16-18 hrs

>  <COMPOUND>
CC(C)=CCc1c(OC(C)C)cc(/C=C/c2ccc(F)cc2)c(C(=O)O)c1O

>  <MIC>
4 µg/mL

$$$$
>  <COMPOUND>
CC(C)=CCc1c(OCC(F)F)cc(/C=C/c2ccc(C(F)(F)F)cc2)c(C(=O)O)c1O

>  <MIC>
2 µg/mL

$$$$
>  <COMPOUND>
CCCC(CC)Oc1cc(/C=C/c2ccc(C(F)(F)F)cc2)c(C(=O)O)c(O)c1CC=C(C)C (configuration not stated)

>  <MIC>
8 µg/mL

$$$$
>  <COMPOUND>
CC(C)=CCc1c(OCCCCF)cc(/C=C/c2ccc(F)cc2)c(C(=O)O)c1O

>  <MIC>
4 µg/mL

$$$$
>  <COMPOUND>
CC(C)=CCc1c(OCc2ccccc2)cc(/C=C/c2ccc(F)cc2)c(C(=O)O)c1O

>  <MIC>
4 µg/mL

$$$$
>  <COMPOUND>
CC(C)=CCc1c(OC2CCOCC2)cc(/C=C/c2ccc(F)cc2)c(C(=O)O)c1O

>  <MIC>
16 µg/mL

$$$$
>  <COMPOUND>
CCC(C)Oc1cc(/C=C/c2ccc(C(F)(F)F)cc2)c(C(=O)O)c(O)c1CC=C(C)C (configuration not stated)

>  <MIC>
2 µg/mL

$$$$
>  <COMPOUND>
CC(C)=CCc1c(OCCC(F)(F)F)cc(/C=C/c2ccc(F)cc2)c(C(=O)O)c1O

>  <MIC>
4 µg/mL

$$$$
>  <COMPOUND>
CC(C)=CCc1c(OC2CCCCCC2)cc(/C=C/c2ccc(F)cc2)c(C(=O)O)c1O

>  <MIC>
2 µg/mL

$$$$
>  <COMPOUND>
CC(C)=CCc1c(OCCCF)cc(/C=C/c2ccc(F)cc2)c(C(=O)O)c1O

>  <MIC>
4 µg/mL

$$$$
>  <COMPOUND>
CC(C)=CCc1c(OCCC(F)(F)F)cc(/C=C/c2ccc(C(F)(F)F)cc2)c(C(=O)O)c1O

>  <MIC>
4 µg/mL

$$$$
>  <COMPOUND>
CC(C)=CCc1c(OC2CCC2)cc(/C=C/c2ccc(C(F)(F)F)cc2)c(C(=O)O)c1O

>  <MIC>
1 µg/mL

$$$$
>  <COMPOUND>
CCC(CC)Oc1cc(/C=C/c2ccc(C(F)(F)F)cc2)c(C(=O)O)c(O)c1CC=C(C)C

>  <MIC>
2 µg/mL

$$$$
>  <COMPOUND>
CC(C)=CCc1c(OCC(F)(F)F)cc(/C=C/c2ccc(C(F)(F)F)cc2)c(C(=O)O)c1O

>  <MIC>
2 µg/mL

$$$$
>  <COMPOUND>
CC(C)=CCc1c(OCCCF)cc(/C=C/c2ccc(C(F)(F)F)cc2)c(C(=O)O)c1O

>  <MIC>
4 µg/mL

$$$$
>  <COMPOUND>
CC(C)=CCc1c(OC2CCCCC2)cc(/C=C/c2ccc(C(F)(F)F)cc2)c(C(=O)O)c1O

>  <MIC>
4 µg/mL

$$$$
>  <COMPOUND>
CC(C)=CCc1c(OC2CCCCCC2)cc(/C=C/c2ccc(C(F)(F)F)cc2)c(C(=O)O)c1O

>  <MIC>
4 µg/mL

$$$$
>  <COMPOUND>
CCOc1cc(/C=C/c2ccc(F)cc2)c(C(=O)O)c(O)c1CC=C(C)C

>  <MIC>
4 µg/mL

$$$$
>  <COMPOUND>
CC(C)=CCc1c(OC2CCC2)cc(/C=C/c2ccc(F)cc2)c(C(=O)O)c1O

>  <MIC>
2 µg/mL

$$$$
>  <COMPOUND>
CC(C)=CCc1c(OCCCCF)cc(/C=C/c2ccc(C(F)(F)F)cc2)c(C(=O)O)c1O

>  <MIC>
4 µg/mL

$$$$
>  <COMPOUND>
CC(C)=CCc1c(OC(C)C)cc(/C=C/c2ccc(C(F)(F)F)cc2)c(C(=O)O)c1O

>  <MIC>
2 µg/mL

$$$$
>  <COMPOUND>
CC(C)=CCc1c(OCCCC(F)(F)F)cc(/C=C/c2ccc(F)cc2)c(C(=O)O)c1O

>  <MIC>
4 µg/mL

$$$$
>  <COMPOUND>
COc1cc(/C=C/c2ccccc2)c(C(=O)O)c(O)c1CC=C(C)C

>  <MIC>
8 µg/mL

$$$$
>  <COMPOUND>
CC(C)=CCc1c(OCCCC(F)(F)F)cc(/C=C/c2ccc(C(F)(F)F)cc2)c(C(=O)O)c1O

>  <MIC>
4 µg/mL

$$$$
>  <COMPOUND>
CC(C)=CCc1c(OCc2ccccc2)cc(/C=C/c2ccc(C(F)(F)F)cc2)c(C(=O)O)c1O

>  <MIC>
4 µg/mL

$$$$
>  <COMPOUND>
CC(C)=CCc1c(OC2CCCCC2)cc(/C=C/c2ccc(F)cc2)c(C(=O)O)c1O

>  <MIC>
4 µg/mL

$$$$
>  <COMPOUND>
CC(C)=CCc1c(OCC2CC2)cc(/C=C/c2ccc(C(F)(F)F)cc2)c(C(=O)O)c1O

>  <MIC>
2 µg/mL

$$$$
>  <COMPOUND>
CCC(C)Oc1cc(/C=C/c2ccc(F)cc2)c(C(=O)O)c(O)c1CC=C(C)C (configuration not stated)

>  <MIC>
4 µg/mL

$$$$
>  <COMPOUND>
CCOc1cc(/C=C/c2ccc(C(F)(F)F)cc2)c(C(=O)O)c(O)c1CC=C(C)C

>  <MIC>
2 µg/mL

$$$$
>  <COMPOUND>
CC(C)=CCc1c(OCCF)cc(/C=C/c2ccc(F)cc2)c(C(=O)O)c1O

>  <MIC>
4 µg/mL

$$$$
>  <COMPOUND>
CCCC(CC)Oc1cc(/C=C/c2ccc(F)cc2)c(C(=O)O)c(O)c1CC=C(C)C (configuration not stated)

>  <MIC>
2 µg/mL

$$$$
>  <COMPOUND>
CC(C)=CCc1c(OCC(F)F)cc(/C=C/c2ccc(F)cc2)c(C(=O)O)c1O

>  <MIC>
4 µg/mL

$$$$
>  <COMPOUND>
CC(C)=CCc1c(OC2CCCC2)cc(/C=C/c2ccc(F)cc2)c(C(=O)O)c1O

>  <MIC>
4 µg/mL

$$$$
>  <COMPOUND>
CCn1cc(C(=O)O)c(=O)c2cc(F)c(N3CCNCC3)cc21

>  <MIC>
1 µg/mL

$$$$
>  <COMPOUND>
CC(C)=CCc1c(OC2CCCC2)cc(/C=C/c2ccc(C(F)(F)F)cc2)c(C(=O)O)c1O

>  <MIC>
2 µg/mL

$$$$
>  <COMPOUND>
CC(C)=CCc1c(OCC(F)(F)F)cc(/C=C/c2ccc(F)cc2)c(C(=O)O)c1O

>  <MIC>
4 µg/mL

$$$$
>  <COMPOUND>
CC1(C)S[C@@H]2[C@H](NC(=O)[C@H](N)c3ccccc3)C(=O)N2[C@H]1C(=O)O

>  <MIC>
> 128 µg/mL

$$$$
